Tested on: P. aeruginosa 27853
Format: cell-based, Pseudomonas aeruginosa
Details: NaCl 150 mM
Where no end group is shown, it is not given here.
QUANTITY MEASURED: MIC (µM)
Give the number; µM is assumed, so skip it.

Entry ILKKLLKKVKKI-NH2 [Hp1404-T1e] — recorded MIC = 12.5

Entry ILKKLLKKVKSI-NH2 [Hp1404-T1d] — recorded MIC = 25

====

System: P. aeruginosa 27853
Format: cell-based, Pseudomonas aeruginosa
Conditions: NaCl 100 mM
Experimental: We examined the activity of each peptide against both pseudomonas aeruginosa and multidrug-resistant strains. The minimal inhibitory concentrations (MICs) of peptides were determined using the broth micro-dilution assay as described previously. Briefly, bacterial strains were cultivated with shaking overnight at 37 °C. […] Inhibition of bacterial growth was determined by measuring the absorbance at 600 nm using a Versa Max microplate reader (Molecular Devices, Sunnyvale, CA, USA). […]
Where no end group is shown, it is not given here.
QUANTITY MEASURED: MIC (µM)
The figure you give is taken to be in µM; do not add the unit.

{"SUBSTANCE": "ILKKLLKKVKSI-NH2 [Hp1404-T1d]", "OBSERVED MEASUREMENT": 12.5}

Shift focus to the following entry.
Record ILKKLLKKVKKI-NH2 [Hp1404-T1e] , field MIC: 6.25

====

Listing of recorded MIC by entry.
Tested on: Pseudomonas aeruginosa and MRPA strains
Test: microbe, parasite or virus in culture
Assay type: cell-based
Conditions: P. aeruginosa 4891 (multidrug-resistant); broth micro-dilution, 37 °C, 18–24 h, triplicate
Where no end group is shown, it is not given here.
The answer is to be given in µM; state only the numeric part.

{"SUBSTANCE": "ILKKLLKKVKSI-NH2 [Hp1404-T1d]", "OBSERVED MEASUREMENT": 3.13}
{"SUBSTANCE": "GILGKLWEGVKSIF-NH2 [Hp1404]", "OBSERVED MEASUREMENT": 6.25}

Lab note: substance ILKKLLKGVKSI-NH2 [Hp1404-T1c] tested on Pseudomonas aeruginosa and MRPA strains; recorded MIC was 6.25

The measured MIC that ILKKLLKKVKKI-NH2 [Hp1404-T1e] showed for Pseudomonas aeruginosa and MRPA strains is 1.56

Short answer on Pseudomonas aeruginosa and MRPA strains for ILKKLWEGVKSI-NH2 [Hp1404-T1a] , MIC: 25

====

System: Pseudomonas aeruginosa and MRPA strains
Test: microbe, parasite or virus in culture
Assay type: cell-based
Conditions: P. aeruginosa 5018 (multidrug-resistant); broth micro-dilution, 37 °C, 18–24 h, triplicate
Where no end group is shown, it is not given here.
QUANTITY MEASURED: MIC

{"SUBSTANCE": "ILKKLLKKVKSI-NH2 [Hp1404-T1d]", "QUANTITY MEASURED": "MIC", "OBSERVED MEASUREMENT": "1.56 µM"}

Please turn your attention to the following entry.
Kindly note: Pseudomonas aeruginosa and MRPA strains, ILKKLWEGVKSI-NH2 [Hp1404-T1a] , MIC value reported: >25 µM

====

System: trypsin
Assay: Trypsin stability assay
Format: in vitro ADME
Details: trypsin (25 nM) in sodium phosphate buffer, 20 µg peptide in 100 µL 10 mM sodium phosphate buffer pH 7.4 with 25 nM trypsin, 37 °C, RP-HPLC peak area of native peptide (C18), repeated three times, read-out: remaining peptide after trypsin treatment
Where no end group is shown, it is not given here.
QUANTITY MEASURED: remaining at 2 h, 0.2 mg/mL (%)
Use % as the unit, but write only the number.

Entry GILGKLWEGVKSIF-NH2 [Hp1404] : remaining at 2 h, 0.2 mg/mL on trypsin = 50

====

Tested on: Pseudomonas aeruginosa and MRPA strains
Assay: microbe, parasite or virus in culture
Assay type: cell-based
Details: P. aeruginosa ATCC 27853; broth micro-dilution, 2 × 10^5 CFU/mL, 37 °C, 18–24 h, A600, triplicate
Where no end group is shown, it is not given here.
QUANTITY MEASURED: MIC (µM)
Write down the numeric answer in µM and omit the unit.

Below are worked cases with known answers.
{"SUBSTANCE": "ILKKLLKKVKSI-NH2 [Hp1404-T1d]", "MIC [µM]": 1.56}
{"SUBSTANCE": "ILKKLLKGVKSI-NH2 [Hp1404-T1c]", "MIC [µM]": 3.13}
{"SUBSTANCE": "ILKKLLKKVKKI-NH2 [Hp1404-T1e]", "MIC [µM]": 1.56}

Okay, now this substance:
For record GILGKLWEGVKSIF-NH2 [Hp1404] the listed MIC is 12.5

====

The following substances are shown together with reported MBIC values.
Tested on: P. aeruginosa strains (biofilm formation)
Assay type: cell-based, Pseudomonas aeruginosa
Conditions: P. aeruginosa 1162; 24 h, 37 °C, crystal violet OD595
Where no end group is shown, it is not given here.
Field format: number, assumed µM, no unit text.

{"SUBSTANCE": "ILKKLLKKVKSI-NH2 [Hp1404-T1d]", "VALUE UNITS": "µM", "MBIC": 6.25}
{"SUBSTANCE": "GILGKLWEGVKSIF-NH2 [Hp1404]", "VALUE UNITS": "µM", "MBIC": 25}
{"SUBSTANCE": "ILKKLLKGVKSI-NH2 [Hp1404-T1c]", "VALUE UNITS": "µM", "MBIC": 12.5}

Shift focus to the following entry.
Recorded result, ILKKLLKKVKKI-NH2 [Hp1404-T1e] , MBIC: 6.25

====

Tested on: HaCaT cells
Experiment: Cytotoxicity, MTT assay
Format: cell-based, human
Conditions: 50 µM, 24 h
Where no end group is shown, it is not given here.
QUANTITY MEASURED: survival rate of HaCaT cells

Example entries begin here.
{"SUBSTANCE": "ILKKLLKKVKSI-NH2 [Hp1404-T1d]", "OBSERVED MEASUREMENT": "33%"}
{"SUBSTANCE": "ILKKLLKGVKSI-NH2 [Hp1404-T1c]", "OBSERVED MEASUREMENT": "51%"}
{"SUBSTANCE": "ILKKLLKKVKKI-NH2 [Hp1404-T1e]", "OBSERVED MEASUREMENT": "100%"}

// switching to the query substance
The recorded survival rate of HaCaT cells for GILGKLWEGVKSIF-NH2 [Hp1404] is 30%

====

Test system: Pseudomonas aeruginosa and MRPA strains
Assay: microbe, parasite or virus in culture
Format: cell-based
Conditions: P. aeruginosa 3290 (multidrug-resistant); broth micro-dilution, 37 °C, 18–24 h, triplicate
Where no end group is shown, it is not given here.
QUANTITY MEASURED: MIC

{"SUBSTANCE": "ILGKLWEGVKSI-NH2 [Hp1404-T1]", "MIC": ">25 µM"}
{"SUBSTANCE": "ILKKLLKKVKKI-NH2 [Hp1404-T1e]", "MIC": "6.25 µM"}
{"SUBSTANCE": "ILKKLLKKVKSI-NH2 [Hp1404-T1d]", "MIC": "6.25 µM"}
{"SUBSTANCE": "ILKKLLEGVKSI-NH2 [Hp1404-T1b]", "MIC": ">25 µM"}
{"SUBSTANCE": "GILGKLWEGVKSIF-NH2 [Hp1404]", "MIC": "12.5 µM"}

Recorded result, ILKKLLKGVKSI-NH2 [Hp1404-T1c] , MIC: >25 µM

Field MIC (entry ILKKLWEGVKSI-NH2 [Hp1404-T1a] ) reads >25 µM

====

System: Pseudomonas aeruginosa and MRPA strains
Assay: microbe, parasite or virus in culture
Type: cell-based
Conditions: P. aeruginosa 138 (multidrug-resistant); broth micro-dilution, 37 °C, 18–24 h, triplicate
Where no end group is shown, it is not given here.
Reported MIC values follow for various substances
Write down the numeric answer in µM and omit the unit.

{"SUBSTANCE": "ILKKLLKKVKSI-NH2 [Hp1404-T1d]", "VALUE UNITS": "µM", "MIC": 12.5}

The measured MIC associated with GILGKLWEGVKSIF-NH2 [Hp1404] reads 12.5

Short answer for ILKKLLKKVKKI-NH2 [Hp1404-T1e] : MIC was 6.25

Reported MIC of ILKKLLKGVKSI-NH2 [Hp1404-T1c] : 25

====

Tested on: P. aeruginosa 27853
Type: cell-based, Pseudomonas aeruginosa
Details: CaCl2 5 mM
Where no end group is shown, it is not given here.
QUANTITY MEASURED: MIC

Below, each entry is followed by its recorded MIC result.
{"SUBSTANCE": "ILKKLLKKVKSI-NH2 [Hp1404-T1d]", "MIC": ">25 µM"}
{"SUBSTANCE": "ILKKLLKGVKSI-NH2 [Hp1404-T1c]", "MIC": ">25 µM"}
{"SUBSTANCE": "GILGKLWEGVKSIF-NH2 [Hp1404]", "MIC": ">25 µM"}

Known value: P. aeruginosa 27853 MIC of the substance ILKKLLKKVKKI-NH2 [Hp1404-T1e] equals >25 µM
